# System: CAL-85-1
# method.description: normalised response (% of control), CellTox Green; higher = less cell death (100 = DMSO, 0 = benzethonium chloride kill control)
# conditions: incubation time: 72 h
result.type: normalised response (%)
Record the value in %, omitting the unit from your answer.

Lookup: Give the measured normalised response of Cc1ccc(C(=O)N(CCCN)[C@@H](c2oc3cc(Cl)ccc3c(=O)c2Cc2ccccc2)C(C)C)cc1 (10 nM) .
Found: 108

* * *

# Tested on: HCC1937
# method.description: drug sensitivity score (DSS), CellTiter-Glo (DSS (AUC-based score)); higher = stronger drug effect (viability inhibition or cytotoxicity); extreme values may be limits of the assay
# conditions: incubation time: 72 h
result.type: drug sensitivity score
Respond numerically, and do not add a unit to the figure.

CN[C@@H]1C[C@H]2O[C@@](C)([C@@H]1OC)n1c3ccccc3c3c4c(c5c6ccccc6n2c5c31)C(=O)N[C@H]4O
18.8

Lookup: Give the measured drug sensitivity score of CCCCCCCCCCCCCCCCCCOP(=O)([O-])OC1CC[N+](C)(C)CC1 .
Found: 0.853

Lookup: Give the measured drug sensitivity score of CCC1=C[C@@H]2CN(C1)Cc1c([nH]c3ccccc13)[C@@](C(=O)OC)(c1cc3c(cc1OC)N(C)[C@H]1[C@@](O)(C(=O)OC)[C@H](OC(C)=O)[C@]4(CC)C=CCN5CC[C@]31[C@@H]54)C2 .
Found: 8.42

Lookup: Give the measured drug sensitivity score of O=C1CCC(N2C(=O)c3ccccc3C2=O)C(=O)N1 (centres undefined) [Thalidomide] .
Found: 0

Lookup: Give the measured drug sensitivity score of N.N.[Cl][Pt][Cl] [Cisplatin] .
Found: 0

Lookup: Give the measured drug sensitivity score of CC(C)Cn1cnc2c(N)nc3ccccc3c21 .
Found: 0

Lookup: Give the measured drug sensitivity score of N#CCNC(=O)c1ccc(-c2ccnc(Nc3ccc(N4CCOCC4)cc3)n2)cc1 .
Found: 0

Lookup: Give the measured drug sensitivity score of C[C@@H](Oc1cc(-c2cnn(C3CCNCC3)c2)cnc1N)c1c(Cl)ccc(F)c1Cl .
Found: 0

Lookup: Give the measured drug sensitivity score of O=P1(NCCCl)OCCCN1CCCl (centres undefined) [Ifosfamide] .
Found: 0
